Target: Muscarinic acetylcholine receptor M1 (Rattus norvegicus)
Test: rat M1 muscarinic receptor agonists, confirmation, CHO-M1 cells, Fluo-4 calcium, duplicate retest (AID 1488);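 also: an EC20 dose of acetylcholine follows compound addition during the same imaging run; raw fluorescence intensity difference in instrument units with no normalization to controls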
Conditions: Fluo-4 calcium fluorescence, agonist mode, at 10 µM, actives lie on both sides
Among all 1,700 compounds or so, about 310 (18%) were called active. Roughly 25% stayed inconclusive and do not appear here. Shown is part of a subset that was picked to be rich in actives.
We begin with a simple list: items and their reported fluorescence change (max-min).
reported-metric: fluorescence change (max-min)

1) Cc1ccc(C(=O)COc2cccc(NC(=O)c3ccco3)c2)cc1 : 131
2) COc1ccccc1N1CCN(C(=O)c2c(-c3c(Cl)cccc3Cl)noc2C)CC1 : -19.2
3) CC(C)(C)c1cc(CN2CCN(CCC#N)CC2)cc(C(C)(C)C)c1O : 23.3
4) COc1ccc(CCNC(=O)c2ccco2)cc1 : -16.3
5) COc1ccccc1NC1=NC(c2ccc(Cl)cc2)N=C(N)N1 (stereo not given) : -28.2
6) Cc1nc(CNS(=O)(=O)c2ccc(Oc3ccccc3)cc2)cs1 : -2.69
7) COc1ccccc1Cc1nc(-c2ccc(C)cc2)no1 : -14
8) Cc1ccc2oc(=O)c3cnn(CC(=O)N4CCN(c5ccccn5)CC4)c3c2c1 : -16.8
9) O=C(NCc1ccccn1)c1ccc2nc(-c3ccco3)c(-c3ccco3)nc2c1 : 28.5
10) O=C(NCCC1=CCCCC1)C1CCN(Cc2cnn(-c3ccccc3)c2-n2cccc2)CC1 : -25.7
11) CCOC(=O)CSc1nc2c(sc(=S)n2CCc2ccccc2)c(=O)n1Cc1ccco1 : -34.1
12) O=C(CC1Nc2ccccc2NC1=O)Nc1ccccc1 (stereo not given) : -7.08
13) O=C(COC(=O)CCc1c[nH]c(=O)[nH]1)Nc1ccccc1Cl : 13.2
14) Fc1ccc2[nH]c3c(N4CCSCC4)ncnc3c2c1 : 6.07
15) c1ccc2c(c1)OCC(CNc1ncnc3nc[nH]c13)O2 (stereo not given) : 512
16) CCc1nc(Nc2ccc3nccnc3c2)c2oc3ccccc3c2n1 : -1.32
17) c1n[nH]c(NCc2ccc3c(c2)OCO3)n1 : -9.45
18) COCCNC(=O)C(c1ccc(C)o1)N(Cc1cccs1)C(=O)c1snc(C(N)=O)c1N (stereo not given) : -1.36
19) O=C(Nc1cccc(NC(=O)N2CCN(c3ccccc3)CC2)c1)N1CCN(c2ccccc2)CC1 : 1.01
20) CCOc1ccc2nc(N3CCCN(C(=O)Nc4ccccc4C)CC3)c(C#N)cc2c1 : 282
21) CC(C)OCCCNc1ncnc2c1[nH]c1ccc(F)cc12 : 51.6
22) O=C(O)c1ccc(COCC(F)(F)F)cc1 : -6.5
23) O=C(Nc1ccccc1N1CCN(C(=O)c2ccccc2)CC1)c1ccc2c(c1)OCO2 : -2.28
24) COc1cccc(-n2cc3c(c2-c2ccccc2)c(=O)n(C)c(=O)n3C)c1 : -22.4
25) CC(C[N+](C)(C)C)OC(N)=O (stereo not given) : 389
